Recorded values, source patent US4853209A.

Please provide measured Bone/Muscle Ratio for the entries that follow.
# experimental-protocol: Two hour rat biolocalization of radionuclide compositions (Tables I, II, III)
# Assay type: in vivo
# condition-set: 2 h, from percent dose per gram, average of five rats

Solved cases below.
[
  {
    "molecule": "O=P(O)(O)CN(CCO)CCN(CP(=O)(O)O)CP(=O)(O)O.[159Gd]",
    "Bone/Muscle Ratio": 548
  },
  {
    "molecule": "O=P(O)(O)CN(CCO)CCN(CP(=O)(O)O)CP(=O)(O)O.[153Sm]",
    "Bone/Muscle Ratio": 1300
  },
  {
    "molecule": "O=P(O)(O)CN(CCN(CP(=O)(O)O)CP(=O)(O)O)CP(=O)(O)O.[159Gd]",
    "Bone/Muscle Ratio": 577
  },
  {
    "molecule": "O=P(O)(O)CN(CCN(CCN(CP(=O)(O)O)CP(=O)(O)O)CCN(CP(=O)(O)O)CP(=O)(O)O)CP(=O)(O)O.[153Sm]",
    "Bone/Muscle Ratio": 410
  },
  {
    "molecule": "O=P(O)(O)CN(CCN(CP(=O)(O)O)CP(=O)(O)O)CCN(CP(=O)(O)O)CP(=O)(O)O.[153Sm]",
    "Bone/Muscle Ratio": 220
  }
]

Prompt: What value of measured Bone/Muscle Ratio is listed for `O=P(O)(O)CN(CCN(CP(=O)(O)O)CP(=O)(O)O)CP(=O)(O)O.[153Sm]` ?
Response: 1500

---

# experimental-protocol: Two hour rat biolocalization of radionuclide compositions (Tables I, II, III)
# Type: in vivo
# condition-set: tail vein, 2 h, average of five rats
Please provide measured % Dose in Blood for the entries that follow.
Numbers only, in % Dose.

[
  {
    "molecule": "O=P(O)(O)CN(CCN(CP(=O)(O)O)CP(=O)(O)O)CCN(CP(=O)(O)O)CP(=O)(O)O.[153Sm]",
    "% Dose in Blood [% Dose]": 0.16
  },
  {
    "molecule": "O=P(O)(O)CN(CCO)CCN(CP(=O)(O)O)CP(=O)(O)O.[159Gd]",
    "% Dose in Blood [% Dose]": 0.14
  },
  {
    "molecule": "O=P(O)(O)CN(CCO)CCN(CP(=O)(O)O)CP(=O)(O)O.[153Sm]",
    "% Dose in Blood [% Dose]": 0.035
  },
  {
    "molecule": "O=P(O)(O)CN(CCN(CCN(CP(=O)(O)O)CP(=O)(O)O)CCN(CP(=O)(O)O)CP(=O)(O)O)CP(=O)(O)O.[153Sm]",
    "% Dose in Blood [% Dose]": 0.25
  },
  {
    "molecule": "O=P(O)(O)CN(CCN(CP(=O)(O)O)CP(=O)(O)O)CP(=O)(O)O.[159Gd]",
    "% Dose in Blood [% Dose]": 0.15
  }
]

Next compound, % Dose in Blood to be filled in.
Prompt: What value of measured % Dose in Blood is listed for `O=P(O)(O)CN(CCN(CP(=O)(O)O)CP(=O)(O)O)CP(=O)(O)O.[153Sm]` ?
Response: 0.032
